Assay: S. cerevisiae RM11-1a growth modifiers, primary screen, strain RM11-1a, OD600, basal, 24 h (AID 1177);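 further: cultures grown under basal conditions with no added stressor; test concentration not given here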
Conditions: OD600, 24 h, higher = more signal, called active from +8 up or from −8 down
The label depends only on z-score: criterion met if it is at least 0.08, criterion not met if it is smaller.

MOLECULE	QUALITATIVE LABEL
CC(C)C[C@@H]1NC(=O)[C@H]2C[C@@H](C(=O)NCCCCCCN(C)C)[C@@H](c3cccc(OCCO)c3)N2C1=O	criterion not met
O=C(NN=C1C[C@@H](O)[C@@H](O)[C@@H]2[C@@H]3C(=O)N(c4cccc(Oc5ccccc5)c4)C(=O)[C@@H]3CC[C@@H]12)OCc1ccccc1	criterion met
C[C@@H]1CCC2C(=O)N(Cc3ccccc3)C[C@@H](O)CN2[C@H]1c1ccc(Br)cc1 (stereo partly drawn)	criterion not met
CO[C@@H]1COC(=O)CC=C[C@@H](C)[C@@H]2C=C[C@@H](O)[C@@H](COC(=O)CC=C[C@H]1C)O2	criterion not met
C#CCCCON=C1C[C@@H](O)[C@@H](O)[C@@H]2[C@@H]3C(=O)N(Cc4ccccc4)C(=O)[C@@H]3CC[C@H]12	criterion not met
COc1cccc([C@H]2Oc3ccc(OC)cc3C(=NOC(C)CN3CCCc4nc(C)c(C)cc43)[C@@H]2O)c1 (stereo partly drawn)	criterion not met
O=C1[C@H]2[C@H]3[C@H](O)[C@H](O)CC(=NO[C@@H]4O[C@H](CO)[C@@H](O)[C@H](O)[C@H]4O)[C@@H]3CC[C@H]2C(=O)N1Cc1ccccc1	criterion not met
O=C1O[C@@H](c2ccccc2)[C@@H](c2ccccc2)N2[C@@H](c3ccc(OCCO)cc3)[C@]3(C(=O)Nc4ccc(C#CCCO)cc43)[C@@H](C(=O)N3CCCCCCC3)[C@H]12	criterion met
CC(CCN1CCc2nc(-c3ccccc3)c(-c3ccccc3)cc2C1)=NOC[C@@H](C)[C@H](OCc1ccccc1)C(C)C	criterion not met
COCCNC(=O)OCC1CCCC2(CC(OC(=O)NCCc3ccc(F)cc3)CC(CCC(=O)N[C@@H](C)C(=O)OC)O2)O1 (stereo partly drawn)	criterion met
C=CCOC(=O)[C@H]1[C@@H]2C(=O)O[C@@H](c3ccccc3)[C@@H](c3ccccc3)N2[C@@H](c2ccc(OCCOC(=O)[C@H]3C[C@H]4C(=O)N[C@@H](Cc5ccccc5)C(=O)N4[C@H]3c3ccc(O)cc3)cc2)[C@]12C(=O)Nc1ccccc12	criterion met
CCOC(=O)[C@H](Cc1ccccc1)NC(=O)CCC1CC(OC(=O)NCCc2ccc(F)cc2)CC2(CCCC(COC(=O)NCC(c3ccccc3)c3ccccc3)O2)O1 (stereo partly drawn)	criterion met
